molecular target: T1, human monomeric EGFR (EGFR.mmh) (human, UniProt P00533 25-647); test: SPR 37C, mAb captured by anti-human Fc, EGFR.mmh analyte
T1 construct: Soluble monomeric EGFR construct
Observation Type: Kd (nM)
Write the value in nM as a bare number.

Binder	Kd / nM
H1H155P (antibody, human IgG1, V domains shown, Human IgG1 Fc (H1H)) VH: QVQLVESGGGVVQPGRSLRLSCAASGFTFSIYGMHWVRQAPGKGLEWVTVISDDGSKKYYVDSVKGRFTLSRDNSKNTLYLQMNSLRAEDTAVYYCARDRITGTNWYGMDVWGQGTTVTVSS VL: DIQMTQSPSSLSASVGDRVTITCRASQDISNYLAWFQQKPGKAPKSLIFAASSLQSGGPSKFSGSGSGTDFTLTISSLQPEDFATYYCQQYNRYPFTFGPGTKVDIK	0.962

Could you now look at the following binder, please?
query: Report measured Kd; entry is H1H141P (antibody, human IgG1, V domains shown, Human IgG1 Fc (H1H)) VH: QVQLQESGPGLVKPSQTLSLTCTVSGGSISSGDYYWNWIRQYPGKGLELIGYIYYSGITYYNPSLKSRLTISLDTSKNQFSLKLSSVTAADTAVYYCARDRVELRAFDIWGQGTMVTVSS VL: DIQMTQSPSSLSASVGDRVTITCQASQDISNYLNWYQQKPGKAPKLLINDASNLETGVPSRFSGSGSGTDFTFTISSLQPEDIATYYCQHYDSLPLTFGQGTRLEIK
result: 1.02

The values you see were collected from patent US20180036405A1.
